- targetDesc: Polyunsaturated fatty acid 5-lipoxygenase (Homo sapiens)
- Sequence (P09917 whole entry): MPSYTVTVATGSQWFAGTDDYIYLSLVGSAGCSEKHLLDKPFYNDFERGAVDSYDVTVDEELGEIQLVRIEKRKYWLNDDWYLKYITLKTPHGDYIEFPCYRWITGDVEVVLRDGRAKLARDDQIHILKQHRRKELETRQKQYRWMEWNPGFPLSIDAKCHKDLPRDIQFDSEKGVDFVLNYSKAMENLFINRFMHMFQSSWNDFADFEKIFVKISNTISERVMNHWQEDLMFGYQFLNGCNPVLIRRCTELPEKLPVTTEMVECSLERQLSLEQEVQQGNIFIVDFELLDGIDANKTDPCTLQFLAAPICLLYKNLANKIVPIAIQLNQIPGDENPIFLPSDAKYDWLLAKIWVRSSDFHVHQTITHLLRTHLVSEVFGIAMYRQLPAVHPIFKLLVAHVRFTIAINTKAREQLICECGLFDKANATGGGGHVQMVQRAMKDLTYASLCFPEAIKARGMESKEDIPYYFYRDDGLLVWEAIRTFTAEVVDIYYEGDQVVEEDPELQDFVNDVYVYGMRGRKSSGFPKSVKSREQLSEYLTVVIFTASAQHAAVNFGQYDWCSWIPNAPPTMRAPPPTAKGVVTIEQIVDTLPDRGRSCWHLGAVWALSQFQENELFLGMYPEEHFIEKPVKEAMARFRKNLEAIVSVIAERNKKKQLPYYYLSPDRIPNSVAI
- assayText: Inhibition of human recombinant 5-lipoxygenase expressed in Escherichia coli MV1190 by cell free assay
readoutKind: IC50

Reference set (8 entries):
compound: FC(F)(F)c1ccc(Cl)c(OCc2ccccc2-c2ccc(-c3cn(CCCc4ccccc4)nn3)cc2)c1
IC50: 8.8 µM

compound: O=C(O)c1ccc(Cn2cc(-c3ccc(-c4ccccc4)cc3)nn2)c([N+](=O)[O-])c1
IC50: 6.7 µM

compound: Oc1ccc(-c2ccc(-c3cn(CCCc4ccccc4)nn3)cc2)cc1
IC50: > 30 µM

compound: Cc1ccccc1CCn1cc(-c2ccc(-c3ccc(N)cc3)cc2)nn1
IC50: > 30 µM

compound: O=Cc1ccc(-c2c(Cc3ccccc3)nnn2CSc2ccccc2)cc1
IC50: > 30 µM

compound: Oc1cccc(-c2ccc(-c3cn(CSc4ccccc4)nn3)cc2)c1
IC50: 27 µM

compound: Cc1ccccc1CCn1cc(-c2ccc(-c3ccccc3COc3cccc4ccccc34)cc2)nn1
IC50: > 30 µM

compound: Oc1ccc(-c2ccc(-c3cn(CSc4ccccc4)nn3)cc2)cc1
IC50: > 30 µM

Reported IC50 for c1ccc(CCCn2cc(-c3ccc(-c4ccccc4COc4cccc5ccccc45)cc3)nn2)cc1 : what is it? > 30 µM

Reported IC50 for c1ccc(CCCn2cc(-c3ccc(-c4ccc(Oc5ccccc5)cc4)cc3)nn2)cc1 : what is it? > 30 µM

The reported measurements were obtained from ChEMBL document CHEMBL1687920.
